From: paper PMC2206373

biological target: HLA-DR4(B1*0401) (Homo sapiens, UniProt P01903+P01911, A100K/A169T/F76Y/I96L/K127E/L162R/M171V/N62H/P40V/Q125Y/R42H/S133A/S149N/S66Y/V115G/V209L/W38E); test: HLA-DR4 competition peptide binding assay; conditions: Figure 1; competition with biotinylated HA307-319 (Y309F) 50 nM, purified HLA-DR4 30 nM, pH 5, 48 h, room temperature; read-out: DRB1*0401 binding IC50
pIC50: −log10 of the molar value. No end group written: not given here.
measured endpoint: pIC50

                             chain_sequence  value
0  RSFTLASSETGVG [Compound 1, HC gp-39(263–275)]   8.00
